test system: HCT-116 colon carcinoma; assay: In vivo antitumor activity, HCT-116 xenograft; design: species or system Balb/c athymic (nude) female mice; conditions: HT116 sc xenograft in nude mice, at optimal or maximum tolerated dose; CPT-11 run as comparator in same experiment
Marks after values point to notes of the source that are not given here.
In this section, each of the compounds is paired with its reported LCK (gross log cell kill).
ASSAY METRIC: LCK (gross log cell kill)

INSERT INTO measurements (mol_smiles, assay_metric, experimental_result) VALUES
  ('O=C1NC(=O)c2c1c1c3cc(F)c(F)cc3sc1c1c2c2cc(F)c(F)cc2n1[C@@H]1O[C@H](CF)C[C@H](O)[C@H]1O', 'LCK (gross log cell kill)', '>3.4'),
  ('O=C1NC(=O)c2c1c1c3cc(F)c(F)cc3sc1c1c2c2cc(F)c(F)cc2n1[C@@H]1O[C@H](CF)[C@@H](F)[C@H](O)[C@H]1O', 'LCK (gross log cell kill)', '>3.4'),
  ('O=C1NC(=O)c2c1c1c3cc(F)ccc3[nH]c1c1c2c2cc(F)ccc2n1[C@@H]1O[C@H](CF)[C@@H](F)[C@H](O)[C@H]1O', 'LCK (gross log cell kill)', '>1.4^c');
